- TESTED ON: Protease (Human immunodeficiency virus 1)
- ASSAY DETAILS: Inhibition of HIV-1 protease using DABCYL-Abu-Ser-Gln-Asn-Tyr-Pro-Ile-Val-Gln-EDANS as substrate preincubated at 10 uM for 15 mins before substrate addition measured over 15 mins by fluorometric assay
PROPERTY: inhibition (%)
Quick reminder: number only, in %, skip the unit.

Asked: Recorded inhibition for `O=C(NCCc1ccccc1)[C@@H]1O[C@H]2CN(Cc3ccccc3)C(=O)[C@@H]1O2` , please?
Given back: 31

Asked: Can you check `CNCCNC(=O)[C@@H]1O[C@@H]2O[C@H]1C(=O)N(Cc1ccccc1)[C@H]2Cc1ccccc1` next?
Given back: 49

Asked: Can you check `O=C([C@@H]1O[C@@H]2O[C@H]1C(=O)N(Cc1ccccc1)[C@@H]2Cc1ccccc1)N1CCOCC1` next?
Given back: 17

Asked: Can you check `O=C([C@@H]1O[C@@H]2O[C@H]1C(=O)N(Cc1ccccc1)[C@H]2Cc1ccccc1)N1CCN(CCO)CC1` next?
Given back: 75

Asked: Can you check `C[C@@H](CO)NC(=O)[C@@H]1O[C@H]2CN(Cc3ccccc3)C(=O)[C@@H]1O2` next?
Given back: 90

Asked: Can you check `COC(=O)[C@H](CC(C)C)N1C[C@@H]2O[C@@H](C(=O)N[C@H](CO)CC(C)C)[C@@H](O2)C1=O` next?
Given back: 57

Asked: Can you check `C[C@@H](CO)NC(=O)[C@@H]1O[C@@H]2O[C@H]1C(=O)N(Cc1ccccc1)[C@@H]2Cc1ccccc1` next?
Given back: 81

Asked: Can you check `O=C(NCCCO)[C@@H]1O[C@H]2CN(Cc3ccccc3)C(=O)[C@@H]1O2` next?
Given back: 47

* * *

- TESTED ON: Protease (Human immunodeficiency virus 1) (UniProt Q9YQ12)
- Sequence (Q9YQ12 as listed by the source): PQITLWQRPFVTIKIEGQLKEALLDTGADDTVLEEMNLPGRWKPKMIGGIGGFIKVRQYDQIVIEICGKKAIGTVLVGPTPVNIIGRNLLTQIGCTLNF
- ASSAY DETAILS: Inhibition of HIV-1 protease using DABCYL-Abu-Ser-Gln-Asn-Tyr-Pro-Ile-Val-Gln-EDANS as substrate preincubated at 1 uM for 15 mins before substrate addition measured over 15 mins by fluorometric assay
PROPERTY: inhibition

Asked: Recorded inhibition for `C#CCNC(=O)[C@@H]1O[C@@H]2O[C@H]1C(=O)N(Cc1ccccc1)[C@H]2Cc1ccccc1` , please?
Given back: 60%

Asked: Can you check `CC(C)CC(=O)N[C@H](C(=O)N[C@H](C(=O)N[C@@H](CC(C)C)[C@@H](O)CC(=O)N[C@@H](C)C(=O)N[C@@H](CC(C)C)[C@@H](O)CC(=O)O)C(C)C)C(C)C` next?
Given back: 56%

Asked: Can you check `CC(C)C[C@@H](CO)NC(=O)[C@@H]1O[C@H]2CN(Cc3ccccc3)C(=O)[C@@H]1O2` next?
Given back: 55%

Asked: Can you check `CCCCNC(=O)[C@@H]1O[C@@H]2O[C@H]1C(=O)N(Cc1ccccc1)[C@H]2Cc1ccccc1` next?
Given back: 33%

Asked: Can you check `O=C([C@@H]1O[C@@H]2O[C@H]1C(=O)N(Cc1ccccc1)[C@H]2Cc1ccccc1)N1CCN(CCO)CC1` next?
Given back: 45%

Asked: Can you check `C[C@@H](CO)NC(=O)[C@@H]1O[C@H]2CN(Cc3ccccc3)C(=O)[C@@H]1O2` next?
Given back: 54%

Asked: Can you check `O=C(NC1CCCCC1)[C@@H]1O[C@@H]2O[C@H]1C(=O)N(Cc1ccccc1)[C@H]2Cc1ccccc1` next?
Given back: 69%

All values here come from ChEMBL document CHEMBL3352308.
